# target: T1, human BCMA on NCI-H929, OPM2 and Raji cells (human, UniProt Q02223 1-184)
# T1 construct: endogenous BCMA of human cell lines; also called TNFRSF17; CD269
# T1 chain: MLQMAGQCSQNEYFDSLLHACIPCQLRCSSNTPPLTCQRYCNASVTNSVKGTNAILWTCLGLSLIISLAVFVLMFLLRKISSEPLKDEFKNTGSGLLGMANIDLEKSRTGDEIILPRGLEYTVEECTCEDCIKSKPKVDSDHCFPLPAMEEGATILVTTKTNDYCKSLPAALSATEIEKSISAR
# protocol: flow cytometry, NCI-H929 cells
result_type: Kd (nM)
Express the result in nM but write the number alone.

Task item: For AB200 (antibody, human IgG1, kappa, V domains shown, IgG1 kappa) VH: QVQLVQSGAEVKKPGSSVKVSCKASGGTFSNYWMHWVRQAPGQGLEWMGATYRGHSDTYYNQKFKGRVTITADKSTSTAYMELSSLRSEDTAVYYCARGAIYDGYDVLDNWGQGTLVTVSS VL: DIQMTQSPSSLSASVGDRVTITCSASQDISNYLNWYQQKPGKAPKLLIYYTSNLHSGVPSRFSGSGSGTDFTLTISSLQPEDFATYYCQQYRKLPWTFGQGTKLEIKR , what is its reported Kd?
Reply: 50.5

Task item: For AB214 (antibody, human IgG1, kappa, V domains shown, IgG1 kappa) VH: QVQLVQSGAEVKKPGSSVKVSCKASGGTFSNYWIHWVRQAPGQGLEWMGATYRSQSDTYYNQKYKSRVTITADKSTSTAYMELSSLRSEDTAVYYCARGAVYHGYDVIDNWGQGTLVTVSS VL: DIQMTQSPSSLSASVGDRVTITCRASQSISSYLNWYQQKPGKAPKLLIYATSNLQIGVPSRFSGSGSGTDFTLTISSLQPEDFATYYCQQYRRIPWTFGQGTKLEIKR , what is its reported Kd?
Reply: 2.84

Data origin, for the record: patent US20240327535A1
